Reference source: the supplement of paper PMC10065799

molecular target: Grb2 SH2 (UniProt P62993); experiment: SH2 binding enrichment of the phosphorylated peptide, bacterial display (enrichment ratio); higher = better substrate or ligand; peptides without Tyr show the background
property: SH2 binding enrichment

residue_codes	SH2 binding enrichment
FTRNFYVRAVL [CYBA_Y88_YF]	0.581
RLLRGYNQSAF [HLA-C_Y137_D138N_YF]	1.14
ETKGDYEKILV [ANXA1_Y335]	0.815

----------
target: c-Src SH2; test: SH2 binding enrichment of the phosphorylated peptide, bacterial display (enrichment ratio); higher = better substrate or ligand; peptides without Tyr show the background
property: SH2 binding enrichment

residue_codes	SH2 binding enrichment
RNGNRYFKGIV [DCX_Y64_D62N]	0.509
DGTGHYLGNAC [GATA5_Y208_C210G]	0.492
EAEPYYRSLRD [NPHS1_Y1139]	0.775
QAKRKYQEASK [FES_Y156]	0.602

----------
test system: Fer (mouse); assay: phosphorylation enrichment, bacterial display (enrichment ratio); higher = better substrate or ligand; peptides without Tyr show the background
In this section we review reported phosphorylation enrichment values for a set of sequences.
Would you mind answering with just the numeric figure?

Look over these answered cases.
residue_codes	phosphorylation enrichment
RIDPDYVGRVR [IGSF9_Y81]	0.384
QTENKYVSVSG [EIF2AK3_Y565_D566V]	0.626
HLGNQYVNVMN [SLC3A1_Y461_R456H]	0.603
GVIRHSVVCST [BTK_Y334_Y334S]	0.477
GASWRYGSGVS [NEU1_Y242]	0.428
INMKEYCKKDY [NTN1_Y490_K489E]	0.615
ILGRTYFVNHE [NEDD4_Y627_YF]	0.429
LIEQAYDNLHE [PRPF8_Y871_P874L]	0.821
KPMDTYYDSTR [DYNC2H1_Y2230]	0.447
SGDDGYAKDAQ [TENM4_Y1530_K1535Q]	0.557

Exam item: Note phosphorylation enrichment for the sequence shown: SPPPAFTPMSG [ERBB4_Y1056_Y1056F]
Marked response: 0.439

Exam item: Note phosphorylation enrichment for the sequence shown: TLKDVYDDGKF [RPS6KA3_Y483_YF]
Marked response: 0.488

Exam item: Note phosphorylation enrichment for the sequence shown: NHFKIYNPCAE [PTEN_Y68_L70P_YF]
Marked response: 0.442

Exam item: Note phosphorylation enrichment for the sequence shown: EILTQYEAMAS [GFAP_Y242_R239L]
Marked response: 0.514

Exam item: Note phosphorylation enrichment for the sequence shown: EKLIQYCQSKS [AKR1B1_Y199_G204S]
Marked response: 0.476

Exam item: Note phosphorylation enrichment for the sequence shown: YENGEYIIRQG [PRKG1_Y247]
Marked response: 0.418

----------
biological target: Fyn (UniProt P06241); assay: phosphorylation enrichment, bacterial display (enrichment ratio); higher = better substrate or ligand; peptides without Tyr show the background
Sequence (P06241 whole entry, looked up): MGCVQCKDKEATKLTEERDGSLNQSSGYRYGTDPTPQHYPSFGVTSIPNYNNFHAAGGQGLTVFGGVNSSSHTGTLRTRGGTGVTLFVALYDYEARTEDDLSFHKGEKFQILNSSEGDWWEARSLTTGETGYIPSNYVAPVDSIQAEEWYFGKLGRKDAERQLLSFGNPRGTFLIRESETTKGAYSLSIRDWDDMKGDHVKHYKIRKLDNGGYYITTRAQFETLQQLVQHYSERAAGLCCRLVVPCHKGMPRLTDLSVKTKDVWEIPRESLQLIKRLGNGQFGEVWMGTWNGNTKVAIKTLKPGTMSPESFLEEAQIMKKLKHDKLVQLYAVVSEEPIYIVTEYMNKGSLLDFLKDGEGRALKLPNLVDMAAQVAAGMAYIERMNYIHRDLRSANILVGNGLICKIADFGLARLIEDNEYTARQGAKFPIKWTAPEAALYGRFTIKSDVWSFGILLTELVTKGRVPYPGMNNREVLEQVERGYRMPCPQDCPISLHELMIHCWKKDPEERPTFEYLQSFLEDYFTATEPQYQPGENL
property: phosphorylation enrichment
Would you mind answering with just the numeric figure?

residue_codes	phosphorylation enrichment
LQPNNYQFCGG [CSF1R_Y969]	1.14

Now consider the entry below.
Exam item: Report its phosphorylation enrichment with Fyn (UniProt P06241) as the test system: DRPASYLDKVR [KRT17_Y98_L95P]
Marked response: 0.398

----------
molecular target: MERTK (UniProt Q12866); assay: phosphorylation enrichment, bacterial display (enrichment ratio); higher = better substrate or ligand; peptides without Tyr show the background
Sequence (Q12866 whole entry, looked up): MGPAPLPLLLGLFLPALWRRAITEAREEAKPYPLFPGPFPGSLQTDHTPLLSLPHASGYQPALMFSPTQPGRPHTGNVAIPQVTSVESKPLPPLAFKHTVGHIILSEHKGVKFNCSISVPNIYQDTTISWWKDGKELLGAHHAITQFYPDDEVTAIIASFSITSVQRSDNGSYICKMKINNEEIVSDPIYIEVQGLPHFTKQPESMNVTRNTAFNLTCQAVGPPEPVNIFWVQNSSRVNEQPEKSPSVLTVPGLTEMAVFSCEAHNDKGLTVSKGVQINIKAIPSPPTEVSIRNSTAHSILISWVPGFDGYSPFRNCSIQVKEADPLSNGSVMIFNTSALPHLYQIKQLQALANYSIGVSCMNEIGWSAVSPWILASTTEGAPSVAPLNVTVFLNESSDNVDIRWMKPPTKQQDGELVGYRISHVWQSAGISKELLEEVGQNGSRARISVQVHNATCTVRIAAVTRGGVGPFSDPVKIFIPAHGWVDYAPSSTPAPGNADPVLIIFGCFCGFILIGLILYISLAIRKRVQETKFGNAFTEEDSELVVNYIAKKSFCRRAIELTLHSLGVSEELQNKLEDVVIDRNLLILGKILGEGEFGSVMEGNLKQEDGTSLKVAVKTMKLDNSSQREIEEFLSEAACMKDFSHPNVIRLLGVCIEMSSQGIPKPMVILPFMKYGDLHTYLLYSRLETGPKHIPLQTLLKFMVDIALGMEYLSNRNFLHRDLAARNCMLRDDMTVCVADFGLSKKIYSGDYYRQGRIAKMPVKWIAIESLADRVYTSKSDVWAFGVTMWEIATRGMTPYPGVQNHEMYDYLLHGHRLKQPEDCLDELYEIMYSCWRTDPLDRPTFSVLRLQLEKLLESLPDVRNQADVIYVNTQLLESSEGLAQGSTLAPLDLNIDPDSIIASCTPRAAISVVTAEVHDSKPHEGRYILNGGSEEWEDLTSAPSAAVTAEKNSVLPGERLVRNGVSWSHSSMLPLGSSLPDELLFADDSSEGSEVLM
property: phosphorylation enrichment
Would you mind answering with just the numeric figure?

Look over these answered cases.
residue_codes	tested_on	phosphorylation enrichment
RGESFYQDTMN [RARS_Y338_R341T]	MERTK (UniProt Q12866)	1.02
QELRRYLKSSV [MICA_Y194_G198S]	MERTK (UniProt Q12866)	0.213

Now consider the entry below.
Exam item: Note phosphorylation enrichment for the sequence shown: HFGNNYTDVLQ [MACC1_Y803_R804T_YF]
Marked response: 0.638

----------
In this section we review reported phosphorylation enrichment values for a set of sequences.
system: AncSZ; test: phosphorylation enrichment, bacterial display (enrichment ratio); higher = better substrate or ligand; peptides without Tyr show the background
Would you mind answering with just the numeric figure?

residue_codes	tested_on	property	reported_result
PVDTYYDSTRG [DYNC2H1_Y2231_M2227V]	AncSZ	phosphorylation enrichment	1.18

Exam item: Note phosphorylation enrichment for the sequence shown: SQSKGYRPKLF [SIPA1L3_Y1376_G1371S_YF]
Marked response: 0.503

Exam item: Note phosphorylation enrichment for the sequence shown: VLVSQYEKLNA [AMZ2_Y26]
Marked response: 0.619

----------
target: SHP2-C SH2; test: SH2 binding enrichment of the phosphorylated peptide, bacterial display (enrichment ratio); higher = better substrate or ligand; peptides without Tyr show the background
property: SH2 binding enrichment

Look over these answered cases.
residue_codes	SH2 binding enrichment
QDTSRYTVCNL [BIRC3_Y245_S248C]	0.78
GYGGGYGGVLT [KRT19_Y65_A60G]	0.791
VGTKWYMAPEV [ACVRL1_Y375_R374W]	0.674
EYYENYIEELK [PARP4_Y218_F215Y]	0.706
RKVLVYDKLNV [ROR2_Y624_N620K]	1.09
DQVEQYNKELE [LMNA_Y259_K260N]	0.81
NIEPIYLNMLL [ATR_Y317_V316I]	0.63
PADQAYSWFQH [NDST1_Y711_R709Q_YF]	1.01
ADRSCYDLSCH [GARS1_Y467]	0.968
PSFSEYASVQV [SIRPA_Y496]	0.952

a. KVPRHYDDPGK [FOXG1_Y246]
b. RNFVHYVQGLK [VWF_Y1400_R1399H]
c. FFWDGYMPRQF [GSS_Y270_R267W_YF]
d. SLIDGYFRLTE [JAK2_Y372_A377E_YF]
Exam item: Put the items in order so that reported SH2 binding enrichment rises from first to last. Present the labels in the sequence the task asks for.
Marked response: c, a, b, d

----------
In this section we review reported phosphorylation enrichment values for a set of sequences.
system: AncSZ; experiment: phosphorylation enrichment, bacterial display (enrichment ratio); higher = better substrate or ligand; peptides without Tyr show the background
Would you mind answering with just the numeric figure?

Exam item: Note phosphorylation enrichment for the sequence shown: VVLEDYLDIKN [CLCNKB_Y138]
Marked response: 1.02

Exam item: Note phosphorylation enrichment for the sequence shown: DDSNPYINVKL [MTHFD1_Y52_L51P]
Marked response: 1.45

Exam item: Note phosphorylation enrichment for the sequence shown: GYKVRYATWSI [FGFR1_Y210]
Marked response: 1.06

Exam item: Note phosphorylation enrichment for the sequence shown: QFFQSYFNNNF [ZNF236_Y644]
Marked response: 0.766

----------
In this section we review reported phosphorylation enrichment values for a set of sequences.
biological target: EPHB1 (UniProt P54762); experiment: phosphorylation enrichment, bacterial display (enrichment ratio); higher = better substrate or ligand; peptides without Tyr show the background
Sequence (P54762 whole entry, looked up): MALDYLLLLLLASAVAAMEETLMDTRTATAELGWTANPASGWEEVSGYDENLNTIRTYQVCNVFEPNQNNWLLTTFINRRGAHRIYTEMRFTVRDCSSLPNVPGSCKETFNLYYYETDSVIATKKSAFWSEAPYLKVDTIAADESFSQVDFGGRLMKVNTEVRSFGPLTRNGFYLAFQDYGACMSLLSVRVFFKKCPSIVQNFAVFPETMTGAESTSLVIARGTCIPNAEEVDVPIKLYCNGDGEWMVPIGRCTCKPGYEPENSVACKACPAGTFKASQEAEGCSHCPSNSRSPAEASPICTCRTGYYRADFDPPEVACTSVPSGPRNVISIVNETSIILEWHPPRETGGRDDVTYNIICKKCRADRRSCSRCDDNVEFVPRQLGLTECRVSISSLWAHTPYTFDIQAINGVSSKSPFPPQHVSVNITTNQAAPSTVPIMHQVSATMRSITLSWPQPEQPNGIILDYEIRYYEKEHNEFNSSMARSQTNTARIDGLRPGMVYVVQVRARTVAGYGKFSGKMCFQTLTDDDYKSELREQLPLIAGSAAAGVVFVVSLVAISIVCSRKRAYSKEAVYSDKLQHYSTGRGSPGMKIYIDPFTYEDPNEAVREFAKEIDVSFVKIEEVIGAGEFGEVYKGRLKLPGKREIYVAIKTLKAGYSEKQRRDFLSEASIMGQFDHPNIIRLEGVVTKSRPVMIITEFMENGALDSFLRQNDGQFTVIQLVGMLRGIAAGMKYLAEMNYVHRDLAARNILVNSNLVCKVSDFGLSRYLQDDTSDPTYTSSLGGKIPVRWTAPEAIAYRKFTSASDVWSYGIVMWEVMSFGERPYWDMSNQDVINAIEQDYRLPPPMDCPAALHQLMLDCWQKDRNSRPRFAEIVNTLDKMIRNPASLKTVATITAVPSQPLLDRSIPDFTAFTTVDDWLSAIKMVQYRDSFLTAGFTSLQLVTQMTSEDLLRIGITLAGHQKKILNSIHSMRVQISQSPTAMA
Would you mind answering with just the numeric figure?

Look over these answered cases.
residue_codes	reported_result
GGGGSYNDFGN [HNRNPA1_Y312]	0.433
QDEHGYISLCF [HSPB1_Y133_R136L]	1.56

Exam item: Report its phosphorylation enrichment with EPHB1 (UniProt P54762) as the test system: DRIVNYSRASV [ATP7A_Y1459_I1464V]
Marked response: 0.482

Exam item: Report its phosphorylation enrichment with EPHB1 (UniProt P54762) as the test system: MNLLGYRQVRS [CHST4_Y359_H361Q]
Marked response: 0.439

Exam item: Report its phosphorylation enrichment with EPHB1 (UniProt P54762) as the test system: PADQAYSWFQH [NDST1_Y711_R709Q_YF]
Marked response: 1.3

Exam item: Report its phosphorylation enrichment with EPHB1 (UniProt P54762) as the test system: GGQEDYDRLRP [RAC3_Y64_A59G]
Marked response: 0.566

Exam item: Report its phosphorylation enrichment with EPHB1 (UniProt P54762) as the test system: IVAREYYSKAD [CAMK2B_Y107_E110K]
Marked response: 0.467

Exam item: Report its phosphorylation enrichment with EPHB1 (UniProt P54762) as the test system: SLIERYEPSET [PLCD1_Y258]
Marked response: 0.742

Exam item: Report its phosphorylation enrichment with EPHB1 (UniProt P54762) as the test system: DLSEVYKPCRK [CCDC93_Y176_R179C]
Marked response: 0.483

Exam item: Report its phosphorylation enrichment with EPHB1 (UniProt P54762) as the test system: SCTFTCLLGDR [ETHE1_Y38_Y38C]
Marked response: 0.45

Exam item: Report its phosphorylation enrichment with EPHB1 (UniProt P54762) as the test system: RHFTTYDTNGR [CLCA1_Y665_Y661H]
Marked response: 0.609

Exam item: Report its phosphorylation enrichment with EPHB1 (UniProt P54762) as the test system: LSKDLYLISQM [LARP4_Y141]
Marked response: 1.59

Exam item: Report its phosphorylation enrichment with EPHB1 (UniProt P54762) as the test system: RMGNLYDIDED [GRIN2A_Y1246]
Marked response: 0.583
